# ASSAY SYSTEM: T1, full-length untagged human GPNMB expressed on cells (human, UniProt Q14956 23-572)
# T1 sequence: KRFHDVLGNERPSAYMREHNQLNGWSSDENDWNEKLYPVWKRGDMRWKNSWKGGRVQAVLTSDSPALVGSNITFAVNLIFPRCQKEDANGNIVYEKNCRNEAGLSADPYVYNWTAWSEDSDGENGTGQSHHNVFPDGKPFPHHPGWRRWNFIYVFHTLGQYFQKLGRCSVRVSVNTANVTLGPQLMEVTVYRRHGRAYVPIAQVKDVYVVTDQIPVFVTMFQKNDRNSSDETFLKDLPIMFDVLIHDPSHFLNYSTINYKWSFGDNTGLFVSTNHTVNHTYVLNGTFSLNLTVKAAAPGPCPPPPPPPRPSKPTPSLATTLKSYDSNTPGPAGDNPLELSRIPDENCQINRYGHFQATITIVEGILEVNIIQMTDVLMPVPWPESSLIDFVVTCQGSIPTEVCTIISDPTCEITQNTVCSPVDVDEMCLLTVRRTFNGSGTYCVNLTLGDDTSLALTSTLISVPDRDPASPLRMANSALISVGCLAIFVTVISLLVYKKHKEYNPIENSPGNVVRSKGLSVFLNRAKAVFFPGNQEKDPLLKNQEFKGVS
# ASSAY NOTES: cell-based or functional assay
MEASURED ENDPOINT: GCase (FoB)

For orientation, consider the following solved cases.
# BINDER, GCase (FoB)
records = [
    ("anti-GPNMB antibody GPN-30 (antibody, human IgG1, V domains shown, chimeric) VH: EVQLQQSGPELVNPGASVRISCKASGYSFTGYYMNWVKQSPEKSLEWIGEINPNTGFTTYNQNFKAKATLTVDKSSSTAYIQLKSLTSEDSAVYYCTRPSPSFDYWGQGTTLTVSS VL: DIQMTQSPSSLSASLGERGSLTCRASQEISGHLSWLQQKPDGTIKRLIYAASTLDSGVPKRFSGSRSGSDYSLTISSLESEDFADYYCLQYASYPYTFGGGTKLEIK", "1.27 FoB"),
    ("anti-GPNMB antibody GPN-07 (antibody, human IgG1, V domains shown, chimeric) VH: QVQLQQSGAEQVKPGASVKLSCKASGYTFTSYYMYWVKQRPGQGLEWIGEINPSNGGTYFNEKFKSKATLTVDKSSSTAYMHLSSLTSEDSAVYYCTRGGTYYAYWGQGTLVTVSA VL: DIQMTQSPSSLSASLGERVSLTCRASQEMSGHLSWLQQKPDGTIKRLIYAASTLDSGVPKRFSGSRSGSDYSLTISSLESEDFADYYCLQYASYPYTFGGGTKLEIK", "2.13 FoB"),
]

Turning now to a further record.
Inquiry: Kindly indicate its recorded GCase (FoB). Item: anti-GPNMB antibody GPN-03 (antibody, human IgG1, V domains shown, chimeric) VH: QVQLQQSGPELVKPGASVKLSCKASGYTFTNYYMYWVKQRPGQGLEWIGEINPRNGGTNFNEKFKSKATLTVDKSSSTAYMQLSSLTFEDSAVYYCTTGLAYWGQGTLVTVSA VL: DVVMTQTPLSLPVSLGDQASISCRSSQSLVHSDGNTYLHWYLQKPGQSPKLLIYKVSTRFSGVPDRFSGSGSGTDFTLKISRVEAEDLGVYFCSQSTHVPWTFGGGTKLEIK
Reply text: 1.47 FoB
